Quick record of pKi values for 5-hydroxytryptamine receptor 2A (Rattus norvegicus).
Interpret pKi as the negative base-10 log of the concentration measured in mol/L.

Here are 3 compounds together with their reported answers.
Reported 5-hydroxytryptamine receptor 2A (Rattus norvegicus) pKi for item O=C(CCCCCN1CCN(c2ccccn2)CC1)NC1CCCc2ccccc21 (centres undefined) was 6.27

Reported 5-hydroxytryptamine receptor 2A (Rattus norvegicus) pKi for item O=C(CCCCCN1CCN(c2ccccc2F)CC1)NC1CCCc2ccccc21 (centres undefined) was 6.71

Reported 5-hydroxytryptamine receptor 2A (Rattus norvegicus) pKi for item CCc1ccccc1N1CCN(CCCCCC(=O)NC2CCCc3ccccc32)CC1 (centres undefined) was 5.47

Continuing:
Reported 5-hydroxytryptamine receptor 2A (Rattus norvegicus) pKi for item CNc1ccccc1N1CCN(CCCCCC(=O)NC2CCCc3ccccc32)CC1 (centres undefined) was 5.80

Taken from ChEMBL document CHEMBL1148718.
